# TARGET_DESC: T1, cynomolgus monkey CXCR4 (cynomolgus monkey, UniProt Q28474 1-352)
# T1 construct: whole, on cells; On transiently transfected HEK293T cells or endogenous on the cynomolgus T-cell line HSC-F; also called Cynomolgus CXCR4
# ASSAY: FMAT, hybridoma supernatant on HEK293T cells transiently overexpressing full-length cynomolgus CXCR4
PROPERTY_LABEL: FL1
// keep it numeric: no unit symbol after the value

The following binders have reported results that may help.
Give its FL1 value. Item: 6C7 (antibody, V domains shown, Fully human monoclonal antibody from XenoMouse hybridoma; also called antibody 6C7; mAb 6C7) VH: QVQLVESGGGVVQPGRSLRLSCAASGFTFSNYVMHWVRQAPGKGLEWVAVIWYDGSNKYYADSVKGRFTISRDNSKNTLSLQMNSLRAEDTAVYYCERGEGYYGSGSRYRGYYYGMDVWGQGTTVTVSS VL: DIQMTQSPSSLSASVGDRVTITCRASQGIRTDLGWYQQKPGKAPKRLIYAASSLQSGVPSRFSGSGSGTEFTLTISSLQPEDFATYYCLQHNSYPRTFGQGTKVEIK 3470

Please report the recorded FL1 for 4C1 (antibody, V domains shown, Fully human monoclonal antibody from XenoMouse hybridoma (strains XMG2 IgG2 or XMG4 IgG4, kappa/lambda); Tested as hybridoma supernatant or purified antibody; also called mAb 4C1; Mab4C1) VH: QVQLVESGGGVVQPGRSLRLSCAASGFTFSSYGMHWVRQAPGKGLEWVAVISYDGSNKYYADSVKGRFTISRDNSKNTLYLQMNSLRAEDTAVYYCTRGGLAARRNYYYSYGMDVWGQGTTVTVSS VL: DIQMTQSPSSLSASVGDRVTITCRASQDIRNDLGWYQQKPGKAPKRLIYAASSLQSGVPSRFSGSGSGTQFTLTISSLQPEDFATYYCLQHNSYPLTFGGGTKVQIK . 6360

Request the reported FL1 associated with 5C9 (antibody, V domains shown, Fully human monoclonal antibody from XenoMouse hybridoma (lambda light chain)) VH: QVQLVESGGGVVQPGRSLRLSCAASGFTFSSYGLHWVRQSPGKGLEWVAVISYDGSKKYYADSVKGRFSISRDNSKNTLYLQMNSLRAEDTAVYYCARDRPSRYSSCMDVWGQGTTVTVSS VL: QSALTQPASVSGSPGQSITISCTGTSSDVGSNNFVSWYQQHPGKAPKLMIYEVSKRPSGVSNRFSGSKSGNTASLTISGLQAEDEADYYCCSYAGSNTLVFGGGTKLTVL 7320

Look up FL1: 2A4 (antibody, V domains shown, Fully human monoclonal antibody from XenoMouse hybridoma; also called mAb 2A4; Mab2A4) VH: QVQLVESGGGVVQPGRSLRLSCAASGFTFSSYGMHWVRQAPGKGLEWVAVISYDGSNKYYADSVKGRFTISRDNSKNTLYLQMNSLRAEDTAVYYCTRGGLAARRNYYYSYGTDVWGQGTTVTVSS VL: DIQMTQSPSSLSASVGDRVTITCRASQDIRNDLGWYQQKPGKAPTRLIYAASSLQSGVPSRFSGSGSGTQFTLTISSLQPEDFATYYCLQHNSYPLTFGGGTKVQIK 6740

Could you now look at the following binder, please?
Entry 7C8 (antibody, V domains shown, Fully human monoclonal antibody from XenoMouse hybridoma) VH: QVQLVESGGGVVQPGRSLRLSCAASGFTFSSYGMHWVRQAPGKGLEWVAVIWYDGTYKYYADSVRGRFTISRDNSKNTLYLQMNSLRAEDTAVYYCARGPLLRYFDWLSDYWGQGTLVTVSS VL: DIQMTQSPSSLSASVGDRVTITCRASQGIRNDLGWYQQKPGKAPKRLIYAATSLQSGVPSRFSGSGSGTEFTLTISSLQPEDFATYYCLQHNNYPRTFGGGTKVEIK has what FL1? 4680

meta.source: patent US20140314784A1
